assay: Tissue distribution after oral administration, HPLC; format: in vivo, Sprague-Dawley rats; conditions: plasma; rat, 5 mg/kg oral; read-out: Concentration in plasma at Tmax
Measured Metric: Cmax (ng/mL)

INSERT INTO measurements (line_notation, result_unit, result_value) VALUES
  ('Cc1c(N2C[C@@H](N)C3(CC3)C2)c(F)c(N)c2c(=O)c(C(=O)O)cn(C3CC3)c12', 'ng/mL', 580);

###

Assay: Tissue distribution after oral administration, HPLC
Type: in vivo, Sprague-Dawley rats
Settings: rat, lung, po, 5 mg/kg; read-out: concentration ratio (tissue/plasma), lung
Description: Seven-week-old male Sprague-Dawley rats were used. The test compounds were orally administered at a dose of 5 mg/kg to rats fasted overnight. At intervals of 0.083, 0.25, 0.5, 1, 2, 4, 6, 8, 12 and 24 h after administration, the rats were anesthetized with ether and blood samples were taken from the abdominal aorta. […] The concentration of the test compounds in the biological fluids (plasma and in each tissue tested) was determined by HPLC method. […]
Measured Metric: Kp

INSERT INTO results (line_notation, result_value) VALUES
  ('Cc1c(N2C[C@@H](N)C3(CC3)C2)c(F)c(N)c2c(=O)c(C(=O)O)cn(C3CC3)c12', 6.9);
